Please go through the items and note down their inhibition.
System Name: Mitogen-activated protein kinase 9 (Homo sapiens, UniProt P45984)
Sequence (P45984 whole entry, looked up): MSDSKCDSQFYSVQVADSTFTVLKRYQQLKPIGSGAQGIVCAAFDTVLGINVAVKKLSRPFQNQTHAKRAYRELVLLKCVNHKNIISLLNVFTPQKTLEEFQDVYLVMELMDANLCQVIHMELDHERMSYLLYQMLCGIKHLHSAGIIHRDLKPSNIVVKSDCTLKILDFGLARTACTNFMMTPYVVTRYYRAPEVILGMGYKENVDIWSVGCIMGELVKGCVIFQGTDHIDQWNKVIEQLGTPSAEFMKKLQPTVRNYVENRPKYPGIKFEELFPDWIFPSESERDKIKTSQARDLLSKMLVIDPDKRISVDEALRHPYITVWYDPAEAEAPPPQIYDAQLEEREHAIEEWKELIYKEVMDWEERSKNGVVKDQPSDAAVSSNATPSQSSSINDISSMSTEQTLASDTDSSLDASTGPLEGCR
Measurement Notes: Inhibition of JNK2 (unknown origin) at 10 uM by radiometric assay relative to control
Supply the numeric figure in %, leaving out any unit text.

inhibition recorded for this compound, O=C1N/C(=N\c2cccc(Cl)c2Cl)S/C1=C1\C(=O)Nc2ccc(N3CCCC3)cc21 , is 5

inhibition recorded for this compound, O=C1N/C(=N\c2cccc(Cl)c2)S/C1=C1\C(=O)Nc2ccc(Br)cc21 , is 35.7

inhibition recorded for this compound, O=C1N/C(=N\c2c(Cl)cccc2Cl)S/C1=C1\C(=O)Nc2ccc(F)cc21 , is 12.5

inhibition recorded for this compound, O=C1N/C(=N\c2cccc(Cl)c2Cl)S/C1=C1\C(=O)Nc2ccc(F)cc21 , is 10.5

inhibition recorded for this compound, O=C1S/C(=N\c2ccccc2Cl)N/C1=C1\C(=O)Nc2ccc(F)cc21 , is 22

###

Please go through the items and note down their inhibition.
System Name: Mitogen-activated protein kinase 10 (Homo sapiens, UniProt P53779)
Sequence (P53779 whole entry): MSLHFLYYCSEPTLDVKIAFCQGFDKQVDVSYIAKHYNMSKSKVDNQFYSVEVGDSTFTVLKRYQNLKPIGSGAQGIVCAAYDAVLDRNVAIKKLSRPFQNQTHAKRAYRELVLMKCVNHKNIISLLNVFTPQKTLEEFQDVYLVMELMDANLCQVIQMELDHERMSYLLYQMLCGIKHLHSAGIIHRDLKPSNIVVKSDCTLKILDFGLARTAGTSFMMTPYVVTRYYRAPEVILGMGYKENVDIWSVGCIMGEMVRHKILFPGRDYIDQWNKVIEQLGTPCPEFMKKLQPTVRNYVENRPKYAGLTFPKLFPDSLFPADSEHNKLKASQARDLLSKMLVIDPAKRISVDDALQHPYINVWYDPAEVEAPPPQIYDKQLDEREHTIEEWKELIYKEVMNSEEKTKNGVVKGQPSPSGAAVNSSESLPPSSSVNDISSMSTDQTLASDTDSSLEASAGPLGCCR
Measurement Notes: Inhibition of JNK3 (unknown origin) at 10 uM by radiometric assay relative to control
Supply the numeric figure in %, leaving out any unit text.

inhibition recorded for this compound, O=C1N/C(=N\c2cccc(Cl)c2Cl)S/C1=C1\C(=O)Nc2ccc(N3CCCCC3)cc21 , is 34

inhibition recorded for this compound, O=C(CCN1CCCC1)Nc1ccc2c(c1)/C(=C1/S/C(=N/c3cccc(Cl)c3Cl)NC1=O)C(=O)N2 , is 91.5

inhibition recorded for this compound, O=C1N/C(=N\c2ccccc2F)S/C1=C1\C(=O)Nc2ccc(F)cc21 , is 89.7

inhibition recorded for this compound, O=C1N/C(=N\c2c(F)cccc2F)S/C1=C1\C(=O)Nc2ccc(Cl)cc21 , is 93

inhibition recorded for this compound, O=C1N/C(=N\c2ccccc2)S/C1=C1\C(=O)Nc2ccc(Cl)cc21 , is 1.7

inhibition recorded for this compound, O=C1N/C(=N\c2cccc(Cl)c2Cl)S/C1=C1\C(=O)Nc2ccc(N3CCOCC3)cc21 , is 89

These measurements were taken from ChEMBL document CHEMBL5385877.
